Readings of MIC for the listed molecules
- System: Mycobacterium avium
- Assay explanation: Antimicrobial activity against Mycobacterium avium My 330/88 after 14 days
- Type: functional
- Test context: 336 h
Give a bare numeral; the unit µM is implied.

Cc1ccc(CSc2ccncc2)cc1; 62.5
Clc1ccc(-n2nnnc2SCc2ccccc2)cc1Cl; 62.5
Cc1ccc(-n2nnnc2S)cc1; 500
C[C@]12CC[C@@H]3c4ccc(OCCCCCCCBr)cc4CC[C@H]3[C@@H]1CCC2=O; 16

IN: Value lookup for MIC; key = `C[C@]12CC[C@@H]3c4ccc(OCCCCCCC[n+]5ccccc5)cc4CC[C@H]3[C@@H]1CCC2=O.[Br-]`
OUT: 32

====

Readings of MIC for the listed compounds
- System: Mycobacterium kansasii
- Assay explanation: Antimicrobial activity against Mycobacterium kansasii My 6509/96 after 21 days
- Type: functional
- Test context: 504 h

IN: Value lookup for MIC; key = `Cc1ccc(-n2nnnc2S)cc1`
OUT: > 500 µM

IN: Value lookup for MIC; key = `Cc1ccc(CSc2cc[n+](CCCCCCCOc3ccc4c(c3)CC[C@@H]3[C@@H]4CC[C@]4(C)C(=O)CC[C@@H]34)cc2)cc1.[Br-]`
OUT: 16 µM

IN: Value lookup for MIC; key = `Sc1nnnn1-c1ccc(Cl)cc1`
OUT: > 500 µM

IN: Value lookup for MIC; key = `Clc1ccc(CSc2ccncc2)cc1`
OUT: 62.5 µM

====

Readings of MIC for the listed compounds
- System: Nakaseomyces glabratus
- Assay explanation: Antifungal activity against Candida glabrata 20/I after 24 hrs
- Assay type: functional
Give a bare numeral; the unit µM is implied.

OC(Cn1cncn1)(Cn1cncn1)c1ccc(F)cc1F; 13.1
C[C@]12CC[C@@H]3c4ccc(OCCCCCCC[n+]5ccccc5)cc4CC[C@H]3[C@@H]1CCC2=O.[Br-]; 7.8
C[C@@H]1[C@H](O)[C@@H](C)/C=C/C=C/C=C/C=C/C=C/C=C/C=C/[C@H](O[C@@H]2O[C@H](C)[C@@H](O)[C@H](N)[C@@H]2O)C[C@@H]2O[C@](O)(C[C@@H](O)C[C@@H](O)[C@H](O)CC[C@@H](O)C[C@@H](O)CC(=O)O[C@H]1C)C[C@H](O)[C@H]2C(=O)O; 0.04

IN: Value lookup for MIC; key = `C[C@]12CC[C@@H]3c4ccc(OCCCCCCC[n+]5ccc(SCc6ccccc6)cc5)cc4CC[C@H]3[C@@H]1CCC2=O.[Br-]`
OUT: 15.6

====

- System: Mycolicibacterium aurum
- Assay explanation: Antimicrobial activity against Mycobacterium aurum SB 66 after 24 hrs by micro-broth dilution method
- Type: functional
Define the label as class 1 when MIC is strictly less than 6 µg/mL and as class 0 in all remaining cases.

Cc1ccc(CSc2ccncc2)cc1; class 0
Cc1ccc(CSc2cc[n+](CCCCCCCOc3ccc4c(c3)CC[C@@H]3[C@@H]4CC[C@]4(C)C(=O)CC[C@@H]34)cc2)cc1.[Br-]; class 1
O=C(O)c1cn(C2CC2)c2cc(N3CCNCC3)c(F)cc2c1=O; class 1
Clc1ccc(CSc2ccncc2)cc1; class 0
C[C@]12CC[C@@H]3c4ccc(OCCCCCCC[n+]5ccc(SCc6ccccc6)cc5)cc4CC[C@H]3[C@@H]1CCC2=O.[Br-]; class 1
C[C@]12CC[C@@H]3c4ccc(OCCCCCCC[n+]5ccccc5)cc4CC[C@H]3[C@@H]1CCC2=O.[Br-]; class 0
C[C@]12CC[C@@H]3c4ccc(OCCCCCCC[n+]5ccc(SCc6ccc(Cl)cc6)cc5)cc4CC[C@H]3[C@@H]1CCC2=O.[Br-]; class 1

Next up:
IN: Does `c1ccc(CSc2ccncc2)cc1` have MIC strictly under 6 µg/mL?
OUT: class 0

====

Readings of MIC for the listed compounds
- System: Pichia kudriavzevii
- Assay explanation: Antifungal activity against Candida krusei E28 after 24 hrs
- Type: functional

Worked examples follow.
Cc1ccc(-n2nnnc2SCc2ccccc2)cc1; > 250 µM
Clc1ccc(-n2nnnc2SCc2ccccc2)cc1Cl; > 250 µM
C[C@]12CC[C@@H]3c4ccc(OCCCCCCCSc5nnnn5-c5ccc(Cl)cc5)cc4CC[C@H]3[C@@H]1CCC2=O; > 250 µM
C[C@]12CC[C@@H]3c4ccc(OCCCCCCC[n+]5ccc(SCc6ccc(Cl)cc6)cc5)cc4CC[C@H]3[C@@H]1CCC2=O.[Br-]; 7.8 µM
C[C@]12CC[C@@H]3c4ccc(OCCCCCCCSc5nnnn5-c5ccccc5)cc4CC[C@H]3[C@@H]1CCC2=O; > 250 µM

IN: Value lookup for MIC; key = `c1ccc(CSc2nnnn2-c2ccccc2)cc1`
OUT: > 250 µM

IN: Value lookup for MIC; key = `C[C@]12CC[C@@H]3c4ccc(OCCCCCCCBr)cc4CC[C@H]3[C@@H]1CCC2=O`
OUT: > 125 µM

IN: Value lookup for MIC; key = `C[C@]12CC[C@@H]3c4ccc(OCCCCCCC[n+]5ccccc5)cc4CC[C@H]3[C@@H]1CCC2=O.[Br-]`
OUT: 15.6 µM

IN: Value lookup for MIC; key = OC(Cn1cncn1)(Cn1cncn1)c1ccc(F)cc1F [FLUCONAZOLE]
OUT: 52.2 µM

====

- Test system: L929
- Assay explanation: Antiproliferative activity against mouse L929 cells after 72 hrs
- Type: functional
- Test context: L929, 72 h
Reported endpoint: GI50 (µg/mL)
Give a bare numeral; the unit µg/mL is implied.

Worked examples follow.
Cc1ccc(CSc2ccncc2)cc1; 24.3
c1ccc(CSc2nnnn2-c2ccccc2)cc1; 22.5
C[C@]12CC[C@@H]3c4ccc(OCCCCCCC[n+]5ccc(SCc6ccc(Cl)cc6)cc5)cc4CC[C@H]3[C@@H]1CCC2=O.[Br-]; 2.8
Sc1nnnn1-c1ccc(Cl)c(Cl)c1; 33.4
Clc1ccc(-n2nnnc2SCc2ccccc2)cc1Cl; 19.1

IN: Notebook entry, L929 assay: GI50 of `C[C@]12CC[C@@H]3c4ccc(OCCCCCCCBr)cc4CC[C@H]3[C@@H]1CCC2=O` = ?
OUT: 49.9

====

- Tested on: Mycobacterium kansasii
- Assay explanation: Antimicrobial activity against Mycobacterium kansasii My 235/80 after 21 days
- Format: functional
- Test context: 504 h
Readings of MIC for the listed compounds
Give a bare numeral; the unit µM is implied.

Worked examples follow.
Cc1ccc(CSc2ccncc2)cc1; 125
C[C@]12CC[C@@H]3c4ccc(OCCCCCCC[n+]5ccc(SCc6ccc(Cl)cc6)cc5)cc4CC[C@H]3[C@@H]1CCC2=O.[Br-]; 16
Clc1ccc(CSc2ccncc2)cc1; 62.5
c1ccc(CSc2ccncc2)cc1; 125

Next item in the queue.
IN: Notebook entry, Mycobacterium kansasii assay: MIC of `C[C@]12CC[C@@H]3c4ccc(OCCCCCCC[n+]5ccccc5)cc4CC[C@H]3[C@@H]1CCC2=O.[Br-]` = ?
OUT: 32

====

- Test system: Candida albicans
- Assay explanation: Antifungal activity against Candida albicans ATCC 44859 after 48 hrs
- Type: functional
- Test context: ATCC 44859, 48 h
Readings of MIC for the listed molecules

Worked examples follow.
OC(Cn1cncn1)(Cn1cncn1)c1ccc(F)cc1F [FLUCONAZOLE]; 1.6 µM
Clc1ccc(-n2nnnc2SCc2ccccc2)cc1Cl; > 250 µM
Cc1ccc(-n2nnnc2SCc2ccccc2)cc1; > 250 µM
c1ccc(CSc2nnnn2-c2ccccc2)cc1; > 250 µM
Cc1ccc(-n2nnnc2SCCCCCCCOc2ccc3c(c2)CC[C@@H]2[C@@H]3CC[C@]3(C)C(=O)CC[C@@H]23)cc1; > 250 µM

Next item in the queue.
IN: Value lookup for MIC; key = `C[C@]12CC[C@@H]3c4ccc(OCCCCCCC[n+]5ccc(SCc6ccccc6)cc5)cc4CC[C@H]3[C@@H]1CCC2=O.[Br-]`
OUT: 3.9 µM

====

Readings of MIC for the listed compounds
- System: Mycobacterium avium
- Assay explanation: Antimicrobial activity against Mycobacterium avium My 330/88 after 14 days
- Type: functional
- Test context: 336 h
Give a bare numeral; the unit µM is implied.

C[C@]12CC[C@@H]3c4ccc(OCCCCCCC[n+]5ccc(SCc6ccc(Cl)cc6)cc5)cc4CC[C@H]3[C@@H]1CCC2=O.[Br-]; 8
c1ccc(CSc2ccncc2)cc1; 125

IN: Value lookup for MIC; key = `C[C@]12CC[C@@H]3c4ccc(OCCCCCCC[n+]5ccc(SCc6ccccc6)cc5)cc4CC[C@H]3[C@@H]1CCC2=O.[Br-]`
OUT: 2

IN: Value lookup for MIC; key = `Cc1ccc(-n2nnnc2SCc2ccccc2)cc1`
OUT: 62.5

IN: Value lookup for MIC; key = `Clc1ccc(CSc2ccncc2)cc1`
OUT: 62.5

IN: Value lookup for MIC; key = `Clc1ccc(-n2nnnc2SCc2ccccc2)cc1`
OUT: 62.5

IN: Value lookup for MIC; key = `c1ccc(CSc2nnnn2-c2ccccc2)cc1`
OUT: 32

IN: Value lookup for MIC; key = `Cc1ccc(CSc2cc[n+](CCCCCCCOc3ccc4c(c3)CC[C@@H]3[C@@H]4CC[C@]4(C)C(=O)CC[C@@H]34)cc2)cc1.[Br-]`
OUT: 8
